measurement-target: T1, human DLL3 (immobilized human DLL3 or h293-hDLL3 cells) (human, UniProt Q9NYJ7 27-492, limits assumed)
T1 construct: the sentence says 'immobilized human DLL3 or h293-hDLL3 cells'
T1 sequence: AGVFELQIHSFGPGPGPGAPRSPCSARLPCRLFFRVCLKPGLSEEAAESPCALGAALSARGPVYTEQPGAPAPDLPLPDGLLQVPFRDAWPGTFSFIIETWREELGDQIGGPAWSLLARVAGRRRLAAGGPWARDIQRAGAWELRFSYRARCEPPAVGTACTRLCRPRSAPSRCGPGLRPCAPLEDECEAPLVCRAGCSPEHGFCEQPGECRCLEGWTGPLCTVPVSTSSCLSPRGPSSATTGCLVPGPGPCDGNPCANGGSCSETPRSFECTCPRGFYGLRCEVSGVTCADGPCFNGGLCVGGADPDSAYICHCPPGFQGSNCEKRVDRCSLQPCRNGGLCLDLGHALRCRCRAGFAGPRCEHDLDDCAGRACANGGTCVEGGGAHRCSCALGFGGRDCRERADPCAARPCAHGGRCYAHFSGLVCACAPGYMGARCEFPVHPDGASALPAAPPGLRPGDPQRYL
assay-comment: hybridoma screening on immobilized human DLL3 or on h293-hDLL3 cells
measurement-name: binding result

SC16.131 (antibody, V domains shown, murine mAb; variable regions only) VH: QVQLKESGPGLVAPSQSLSITCTVSGFSLTNYGVHWVRQPPGKGLEWLGVIWAGGITNYNSALMSRLSISEDNSKSQVFLKMNSLQTDDTAMYYCARNLGPYAMDYWGQGTSVTVSS VL: DIQMNQSPSSLSASLGDTITITCHVSQNINVWLSWYQQKPGNIPKLLIQKASNLHTGVPSRFSGSGSGTGFTLTISSLQPEDIATYYCQQGQSYPFTFGSGTKLEIK; binds
SC16.80 (antibody, V domains shown, murine mAb; variable regions only) VH: EVQLQQSGPELVKPGGSKKISCKASGYSFTGYSMNWVKQSHGKNLEWIGLINPYSGGTIYNQKFKGKATLTVDKSSSTAYMELLSLTSEDSAVYYCARRSDYPLVYWGQGTLVTVSA VL: ETTVTQSPASLSMAIGEKVTIRCITSTDIDDDMIWYQQKPGEPPKLLISEGNTLRPGVPSRFSSSGYGTDFVFTIENMLSEDVADYYCLKRDDLPYTFGGGTQVEIK; binds
SC16.47 (antibody, V domains shown, murine mAb; variable regions only) VH: EVQLQQSGPELVKPGASVKISCKASGYSFSRFYMHWVKQSPENSLEWIGEINPSTGGTSYNQKFKGKATLTVDKSSSTAYMQLKSLTSEESAVYYCTRGYGSNCYFDVWGAGTTVTVST VL: DVVLTQSPLSLPVNIGDQASISCKSTKSLLNSDGFTYLDWYLQRPGQSPQFLIYLVSNRFSGVPDRFSGSGSGTDFTLKISRVEAEDLGVYYCFQSNYLPLTFGAGTKLELR; binds

Hello, the source for this data is patent US20180044415A1, in case you need it.
